# Inhibition halo (mm) at the concentration (µg/disk) per record follows
- Test system: Helicobapter pylori
- Assay overview: Inhibition halos of the bacterial growth (impregnated disks on agar)
- Assay type: cell-based
- Run conditions: strain 4, 1 µg/disk

COc1cc(C(O)c2ncc([N+](=O)[O-])n2C)c(O)c(C(C)(C)C)c1 (stereo not shown) ... 35 mm
Cc1ncc([N+](=O)[O-])n1CCO [Metronidazole, reference compound] ... 0 mm
Cn1c([N+](=O)[O-])cnc1C(O)c1cc(C(C)(C)C)cc(C(C)(C)C)c1O (stereo not shown) ... 16 mm

Could you now consider this next molecule?
// query For the molecule Cc1ccc(C(C)(C)C)c(O)c1C(O)c1ncc([N+](=O)[O-])n1C (stereo not shown) , what Inhibition halo (mm) at the concentration (µg/disk) is on record?
// result 30 mm
